SUBJECT OF TEST: human GcgR (Homo sapiens)
Sequence (P47871 26-477): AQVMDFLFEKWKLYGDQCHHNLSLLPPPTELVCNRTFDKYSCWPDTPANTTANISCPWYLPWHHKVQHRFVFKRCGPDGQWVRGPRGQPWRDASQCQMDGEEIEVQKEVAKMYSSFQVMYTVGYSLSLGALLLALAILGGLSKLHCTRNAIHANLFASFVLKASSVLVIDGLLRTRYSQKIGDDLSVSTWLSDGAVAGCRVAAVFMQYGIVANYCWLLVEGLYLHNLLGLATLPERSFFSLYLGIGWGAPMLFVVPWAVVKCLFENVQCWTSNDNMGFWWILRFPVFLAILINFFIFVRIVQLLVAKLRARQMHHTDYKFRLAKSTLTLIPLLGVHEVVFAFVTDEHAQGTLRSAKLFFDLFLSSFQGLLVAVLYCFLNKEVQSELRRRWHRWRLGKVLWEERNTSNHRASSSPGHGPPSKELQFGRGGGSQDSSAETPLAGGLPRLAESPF
PROTOCOL TEXT: Functional cAMP activity in the presence of 1% HSA
Format: cell-based
ASSAY SETUP: read-out: cAMP Rel EC50, hGcgR
Starred links: 1 amine or outer side, 2 acyl side, 3 side chain; linkers in the order of their positions; H or OH if unused. Non-standard residues stand in square brackets, D forms with d. Groups on a side chain read outwards from the residue. No end group written: not given here. *: point of attachment. C20 diacid = O=C(O)CCCCCCCCCCCCCCCCCCC(=O)*; C18 diacid = O=C(O)CCCCCCCCCCCCCCCCC(=O)*; αMePhe(2-F) = C[C@](N)(Cc1ccccc1F)C(=O)O; γGlu = O=C(O)[C@H](CCC(=O)[*:2])N[*:1]; αMe4Pal = C[C@](N)(Cc1ccncc1)C(=O)O; αMeY = C[C@](N)(Cc1ccc(O)cc1)C(=O)O; αMeF = C[C@](N)(Cc1ccccc1)C(=O)O; 4Pal = N[C@@H](Cc1ccncc1)C(=O)O; αMeL = CC(C)C[C@](C)(N)C(=O)O; αMeS = C[C@](N)(CO)C(=O)O; Orn = NCCC[C@H](N)C(=O)O; Dap = NC[C@H](N)C(=O)O; AEEA = NCCOCCOCC(=O)O; Aib = CC(C)(N)C(=O)O
TEST READOUT: pEC50
For clarity, pEC50 is expressed as the negative log10 of concentration in mol/L.

## Input Record H-Y[Aib]QGTFTSD[4Pal][αMeS]Q[αMeL]LD[Orn]K([dE-γGlu-C18 diacid])AQ[αMe4Pal]QFIE[αMeY]LIE[Aib]GPSSGAPPPSGGGE-NH2 [Example 1187] : what is its pEC50 with human GcgR (Homo sapiens)?
## Output 6.43

## Input Cool, now H-Y[Aib]QGT[αMePhe(2-F)]TSDYSKLLDKIAQK([AEEA-γGlu-C18 diacid])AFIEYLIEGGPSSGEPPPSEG-NH2 [Example 330]
## Output 6.40

## Input Cool, now H-Y[Aib]QGT[αMePhe(2-F)]TSD[4Pal][αMeS]I[αMeL]LD[Orn]K([AEEA-γGlu-C18 diacid])AQ[αMe4Pal]EFI[dE][αMeY]LVEGGPSSGAPPPESE-NH2 [Example 1156]
## Output 6.47

## Input Cool, now Y[Aib]QGTFTSDFS[Orn][αMeL]LDKK([AEEA-AEEA-γGlu-C18 diacid])AQ[Aib]AFIEYLLE[dA]GPSSGHPPPSGH-NH2 [Example 255]
## Output 6.05

## Input Cool, now H-Y[Aib]QGT[αMePhe(2-F)]TSD[4Pal][αMeS]I[αMeL]LD[Orn]K([γGlu-γGlu-C18 diacid])AQ[Aib][Orn]FI[dE][αMeY]LSEGGPSSGEPPPSGGEE-NH2 [Example 568]
## Output 6.32

## Input Cool, now Y[Aib]QGT[αMePhe(2-F)]TSD[4Pal][αMeS]I[αMeL]LD[Orn]K([γGlu-γGlu-C18 diacid])AQ[Aib][Orn]FI[dE][αMeY]LQEGGPSSGEPPPEGAEE-NH2 [Example 587]
## Output 6.60

## Input Cool, now Y[Aib]QGT[αMeF]TSD[4Pal][αMeS]I[αMeL]LD[Orn]K([AEEA-γGlu-C18 diacid])AQ[αMe4Pal]EFI[dE][αMeY]LIEGGPSSGAPPPSGGGE-NH2 [Example 1168]
## Output 6.44

## Input Cool, now H-Y[Aib]Q[dA]T[αMePhe(2-F)]TSD[4Pal][αMeS]I[αMeL]LD[Orn]K([AEEA-γGlu-C18 diacid])AQ[Aib]EFI[dE][αMeY]LVEGGPSSGAPPPSGS-NH2 [Example 1204]
## Output 6.29

## Input Cool, now H-Y[Aib]QGTFTSDFS[Orn][αMeL]LDKK([γGlu-γGlu-C18 diacid])AQ[Aib]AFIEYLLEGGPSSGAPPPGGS-NH2 [Example 198]
## Output 5.89

## Input Cool, now H-Y[Aib]QGT[αMePhe(2-F)]TSD[4Pal][αMeS]I[αMeL]LD[Orn]K([γGlu-γGlu-C18 diacid])AQ[Aib][Orn]FI[dE][αMeY]LAEGGPSSGEPPPSGTGE-NH2 [Example 545]
## Output 6.74

## Input Cool, now Y[Aib]QGTFTSD[4Pal]SQ[αMeL]LDKK([AEEA-γGlu-C18 diacid])AQ[Aib]AFIEYLLE[dA]GPSSGAPPPSG[4Pal]-NH2 [Example 822]
## Output 5.68

## Input Cool, now H-Y[Aib]QGT[αMePhe(2-F)]TSD[4Pal][αMeS]I[αMeL]LD[Orn]K([AEEA-γGlu-γGlu-C18 diacid])AQ[αMe4Pal]EFI[dE][αMeY]LIEGGPSSGEPPPSGE-NH2 [Example 1177]
## Output 6.81

## Input Cool, now H-Y[Aib]QGT[αMePhe(2-F)]TSD[4Pal][αMeS]I[αMeL]LD[Orn]K([γGlu-γGlu-C18 diacid])AQ[Aib][Orn]FI[dE][αMeY]LQEGGPSSGEPPPEGEEE-NH2 [Example 588]
## Output 6.59

## Input Cool, now H-Y[Aib]QGTFTSDFS[Orn][αMeL]LDKK([AEEA-γGlu-C20 diacid])AQ[Aib]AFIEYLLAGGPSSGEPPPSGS-NH2 [Example 92]
## Output 5.60

## Input Cool, now H-Y[Aib]QGTFTSDYSK[αMeL]LDKK([AEEA-γGlu-C20 diacid])AQ[Aib]AFVQWLLEGGPSSGEPPPSEG-NH2 [Example 343]
## Output 6.32

## Input Cool, now H-Y[Aib]QGT[αMePhe(2-F)]TSD[4Pal]SI[αMeL]LD[Orn]K([γGlu-γGlu-C18 diacid])AQ[αMe4Pal][Orn]FI[dE][αMeY]LIEGGPSSGEPPPESE-NH2 [Example 685]
## Output 6.80

## Input Cool, now H-Y[Aib]QGTFTSDFS[Dap][αMeL]LDKK([γGlu-γGlu-C18 diacid])AQ[Aib]AFIEYLLE[Aib]GPSSGAPPPSGS-NH2 [Example 203]
## Output 5.94

## Input Cool, now H-Y[Aib]QGTFTSD[4Pal]SQ[αMeL]LDKK([AEEA-γGlu-C18 diacid])AQ[αMe4Pal]AFIEYLIE[Aib]GPSSGAPPPSG[4Pal]-NH2 [Example 835]
## Output 6.25

## Input Cool, now Y[Aib]QGTFTSD[4Pal]SR[αMeL]LDKK([AEEA-γGlu-C18 diacid])AQ[αMe4Pal]AFIE[αMe4Pal]LIEGGPSSGAPPPSGS-NH2 [Example 950]
## Output 6.49

## Input Cool, now H-Y[Aib]QGTFTSDFSK[αMeL]LDKK([AEEA-γGlu-C20 diacid])AQ[Aib]AFIEYLLE[Aib]GPSSGAPPPSGS-NH2 [Example 45]
## Output 6.06

## Input Cool, now H-Y[Aib]QGTFTSD[4Pal]S[Orn][αMeL]LDKK([γGlu-γGlu-C18 diacid])AQ[αMe4Pal]AFIE[αMe4Pal]LIEGGPSSGAPPPSGS-NH2 [Example 952]
## Output 6.58
